Values from patent US8329686B2

So I've got a bunch of compounds here, and I need their melting point values.

Query: Please list melting point recorded for the compound CN1C(=O)C(=O)c2cc(S(=O)(=O)N3CC[C@H]3COc3ccccc3)ccc21 [Compound 18a]
Result: 173.5 to 174.9 °C

Query: Please list melting point recorded for the compound O=C1C(=O)N(Cc2ccc(F)cc2)c2ccc(S(=O)(=O)N3CC[C@H]3COc3ccccc3)cc21 [Compound 18e]
Result: 164.6 to 165.7 °C

Query: Please list melting point recorded for the compound O=C1C(=O)N(Cc2cccc(F)n2)c2ccc(S(=O)(=O)N3CCC[C@H]3COc3ccccc3)cc21 [Compound 11i]
Result: 128.6 to 129.4 °C

Query: Please list melting point recorded for the compound O=C1C(=O)N(Cc2ccc(F)cc2)c2ccc(S(=O)(=O)N3CCC[C@H]3COc3ccccc3)cc21 [Compound 11c]
Result: 74.5 to 75.4 °C

Query: Please list melting point recorded for the compound CSc1ccc(CN2C(=O)C(=O)c3cc(S(=O)(=O)N4CC[C@H]4COc4ccccc4)ccc32)cc1 [Compound 18d]
Result: 167.6 to 169.2 °C

Query: Please list melting point recorded for the compound O=C1C(=O)N(Cc2ccccc2F)c2ccc(S(=O)(=O)N3CC[C@H]3COc3ccccc3)cc21 [Compound 18f]
Result: 147.1 to 148 °C

Query: Please list melting point recorded for the compound O=C1C(=O)N(Cc2ccccc2)c2ccc(S(=O)(=O)N3CC[C@H]3COc3ccccc3)cc21 [Compound 18b]
Result: 157.1 to 158.9 °C

Query: Please list melting point recorded for the compound COc1ccc(CN2C(=O)C(=O)c3cc(S(=O)(=O)N4CC[C@H]4COc4ccccc4)ccc32)cc1 [Compound 18c]
Result: 159.8 to 161.5 °C

Query: Please list melting point recorded for the compound O=C1C(=O)N(Cc2ccccc2)c2ccc(S(=O)(=O)N3CCC[C@H]3COc3ccccc3)cc21 [Compound 2]
Result: 97.2 to 99.1 °C

Query: Please list melting point recorded for the compound O=C1C(=O)N(Cc2ccnc(F)c2)c2ccc(S(=O)(=O)N3CCC[C@H]3COc3ccccc3)cc21 [Compound 11h]
Result: 180.1 to 181.9 °C

Query: Please list melting point recorded for the compound O=C1Nc2ccc(S(=O)(=O)N3CC[C@H]3COc3ccccc3)cc2C1=O [Compound 17]
Result: 173.2 to 174.5 °C

Query: Please list melting point recorded for the compound O=C1C(=O)N(Cc2ccnc(F)c2)c2ccc(S(=O)(=O)N3CC[C@H]3COc3ccccc3)cc21 [Compound 18h]
Result: 159 to 159.9 °C

Query: Please list melting point recorded for the compound O=C1C(=O)N(Cc2ccc(F)nc2)c2ccc(S(=O)(=O)N3CC[C@H]3COc3ccccc3)cc21 [Compound 18g]
Result: 176.8 to 178.3 °C

Query: Please list melting point recorded for the compound O=C1C(=O)N(Cc2cccc(F)n2)c2ccc(S(=O)(=O)N3CC[C@H]3COc3ccccc3)cc21 [Compound 18i]
Result: 144.7 to 146.1 °C

Query: Please list melting point recorded for the compound CSc1ccc(CN2C(=O)C(=O)c3cc(S(=O)(=O)N4CCC[C@H]4COc4ccccc4)ccc32)cc1 [Compound 11d]
Result: 175.4 to 176.8 °C

====

- SYSTEM: caspase 1 (Homo sapiens, UniProt P29466)
- Construct: purchased BIOMOL Research Laboratories (Plymouth Meeting, Pa.)
- TEST NAME: Enzyme inhibition assay, caspase 1 (fluorogenic Ac-YVAD-AMC)
- Type: biochemical
- EXPERIMENTAL PARAMETERS: Table 7; read-out: IC50 (nM) Casp-1
So I've got a bunch of compounds here, and I need their IC50 values.
Express your answer in nM, writing the number without its unit.

Query: Please list IC50 recorded for the compound N#CC(C#N)=C1C(=O)N(Cc2ccc(O)cc2)c2ccc(S(=O)(=O)N3CCC[C@H]3COc3ccccc3)cc21 [Compound 27c]
Result: 2300

Query: Please list IC50 recorded for the compound CN1C(=O)C(=C(C#N)C#N)c2cc(S(=O)(=O)N3CCCC3COc3ccccc3)ccc21 (stereo not shown) [Compound 27a]
Result: 2820

Query: Please list IC50 recorded for the compound N#CC(C#N)=C1C(=O)N(Cc2ccc(Br)cc2)c2ccc(S(=O)(=O)N3CCCC3COc3ccccc3)cc21 (stereo not shown) [Compound 27d]
Result: 5700

Query: Please list IC50 recorded for the compound N#CC(C#N)=C1C(=O)Nc2ccc(S(=O)(=O)N3CCCC3COc3ccccc3)cc21 (stereo not shown)
Result: 1830

====

- SYSTEM: caspase 7 (Homo sapiens)
- Construct: purchased Sigma-Aldrich (St. Louis, Mo.)
- Sequence (P55210 24-198 limits assumed): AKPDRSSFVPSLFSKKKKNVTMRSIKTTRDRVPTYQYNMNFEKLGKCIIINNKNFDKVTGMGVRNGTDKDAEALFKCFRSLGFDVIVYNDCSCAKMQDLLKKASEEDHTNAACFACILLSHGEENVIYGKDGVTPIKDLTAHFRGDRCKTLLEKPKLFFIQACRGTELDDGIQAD
- Sequence (P55210 207-303 limits assumed): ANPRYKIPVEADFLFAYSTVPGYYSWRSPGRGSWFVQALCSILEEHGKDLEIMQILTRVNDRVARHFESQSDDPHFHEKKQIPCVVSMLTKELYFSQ
- TEST NAME: Enzyme inhibition assay, caspase 7 (fluorogenic Ac-DEVD-AMC)
- Assay type: biochemical
- EXPERIMENTAL PARAMETERS: Table 4; read-out: IC50 (nM) caspase-7
So I've got a bunch of molecules here, and I need their log10 of IC50 values.
The base-10 logarithm of IC50, taken with IC50 in nM, is what appears here.

Query: For caspase 7 (Homo sapiens), give log10 of IC50 of the listed molecule: O=C1C(=O)N(Cc2ccc(F)nc2)c2ccc(S(=O)(=O)N3CCC[C@H]3COc3ccccc3)cc21 [Compound 11g]
Result: 1.16

Query: For caspase 7 (Homo sapiens), give log10 of IC50 of the listed molecule: O=C1Nc2ccc(S(=O)(=O)N3CCC[C@H]3COc3ccccc3)cc2C1=O
Result: 2.73

Query: For caspase 7 (Homo sapiens), give log10 of IC50 of the listed molecule: O=C1C(=O)N(Cc2cccc(F)n2)c2ccc(S(=O)(=O)N3CCC[C@H]3COc3ccccc3)cc21 [Compound 11i]
Result: 1.35

Query: For caspase 7 (Homo sapiens), give log10 of IC50 of the listed molecule: O=C1C(=O)N(Cc2ccccc2)c2ccc(S(=O)(=O)N3CCC[C@H]3COc3ccccc3)cc21
Result: 1.45

Query: For caspase 7 (Homo sapiens), give log10 of IC50 of the listed molecule: O=C1C(=O)N(Cc2ccnc(F)c2)c2ccc(S(=O)(=O)N3CCC[C@H]3COc3ccccc3)cc21 [Compound 11h]
Result: 1.76

Query: For caspase 7 (Homo sapiens), give log10 of IC50 of the listed molecule: O=C1C(=O)N(Cc2ccc(O)cc2)c2ccc(S(=O)(=O)N3CCC[C@H]3COc3ccccc3)cc21 [Compound 11f]
Result: 1.64

====

- SYSTEM: caspase 6 (Homo sapiens)
- Construct: purchased Sigma-Aldrich (St. Louis, Mo.)
- Sequence (P55212 24-179 limits assumed): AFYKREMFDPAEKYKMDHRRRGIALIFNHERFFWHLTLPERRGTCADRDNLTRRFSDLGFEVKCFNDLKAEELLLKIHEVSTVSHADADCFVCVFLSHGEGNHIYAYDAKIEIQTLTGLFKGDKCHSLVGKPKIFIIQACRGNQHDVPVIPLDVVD
- Sequence (P55212 194-293 limits assumed): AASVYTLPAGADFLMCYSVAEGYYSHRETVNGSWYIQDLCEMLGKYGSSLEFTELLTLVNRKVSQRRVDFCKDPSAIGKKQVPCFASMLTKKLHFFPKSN
- TEST NAME: Enzyme inhibition assay, caspase 6 (fluorogenic Ac-VEID-AMC)
- Assay type: biochemical
- EXPERIMENTAL PARAMETERS: Table 1; read-out: IC50 (nM) Caspase 6
QUANTITY KIND: IC50 (nM)
Express your answer in nM, writing the number without its unit.

Query: Please list IC50 recorded for the compound O=C1C(=O)N(Cc2ccc(OCCF)cc2)c2ccc(S(=O)(=O)N3CC[C@H]3COc3cccnc3)cc21 [WC-II-101]
Result: 8700

Query: Please list IC50 recorded for the compound O=C1C(=O)N(Cc2ccc(OCCF)cc2)c2ccc(S(=O)(=O)N3CCCC3COc3ccccc3)cc21 (stereo not drawn) [WC-II-89]
Result: 3720

Query: Please list IC50 recorded for the compound O=C1C(=O)N(Cc2ccc(OCCF)cc2)c2ccc(S(=O)(=O)N3CCC[C@H]3COc3cccnc3)cc21 [WC-II-100]
Result: 6900

====

- SYSTEM: caspase 1 (Homo sapiens, UniProt P29466)
- Construct: purchased BIOMOL Research Laboratories (Plymouth Meeting, Pa.)
- Sequence (P29466 120-297 limits assumed): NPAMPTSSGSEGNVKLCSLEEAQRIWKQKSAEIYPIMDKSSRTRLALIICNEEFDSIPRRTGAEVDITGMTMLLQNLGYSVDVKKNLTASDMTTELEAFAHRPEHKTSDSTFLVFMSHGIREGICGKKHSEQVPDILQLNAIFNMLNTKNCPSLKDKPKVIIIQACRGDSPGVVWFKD
- Sequence (P29466 317-404 limits assumed): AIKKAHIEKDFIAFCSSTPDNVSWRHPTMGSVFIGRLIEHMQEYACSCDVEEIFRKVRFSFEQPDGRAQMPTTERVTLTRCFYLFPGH
- TEST NAME: Enzyme inhibition assay, caspase 1 (fluorogenic Ac-YVAD-AMC)
- Type: biochemical
- EXPERIMENTAL PARAMETERS: Table 7; read-out: IC50 (nM) Casp-1
So I've got a bunch of compounds here, and I need their IC50 values.

Query: Please list IC50 recorded for the compound O=C1C(=O)N(Cc2ccc(Br)cc2)c2ccc(S(=O)(=O)N3CCCC3COc3ccccc3)cc21 (stereo not drawn) [Compound 25d]
Result: > 15000 nM

Query: Please list IC50 recorded for the compound O=C1C(=O)N(Cc2ccc(Br)cc2)c2ccc(S(=O)(=O)N3CCCC3COc3cccnc3)cc21 (stereo not drawn) [Compound 28c]
Result: > 15000 nM

Query: Please list IC50 recorded for the compound O=C1C(=O)N(Cc2ccc(O)cc2)c2ccc(S(=O)(=O)N3CCCC3COc3cccnc3)cc21 (stereo not drawn) [Compound 28b]
Result: > 15000 nM
